Numbers sourced from ChEMBL document CHEMBL1201862.

Tested on: HOP-92
EXPERIMENT: NCI tumour cell line growth inhibition, 48 h
The source made the active and inactive calls. No stated cut-off is given here; in the data, active = GI50 up to about 1.1 µM and inactive = higher.
Classes to choose from: 1.0 = active, 0.0 = inactive

Examples from the recorded data:
INSERT INTO results (molecule, label_class) VALUES
  ('C/C(CC(=O)Nc1cc(Cl)c(Cl)cc1Cl)=N\NC(N)=O', 0.0),
  ('CCc1c(O)cc(=O)oc1-c1ccc(OC)c(OC)c1', 0.0),
  ('COC(=O)C1=C(CCC[C@H](C)O[Si](C)(C)C(C)(C)C)NC(=O)N2[C@@H](CCO)CC[C@H]12', 0.0);

What is the recorded call for this molecule in the test? CCOC(=O)C1C=C2O[C@@H]3OC4(CCCCC4)O[C@@H]3C2[C@H]2C(=O)C=CC(=O)[C@@]12C(=O)OC (stereo partly specified)
0.0

What do you get for CC1CN1C(=O)NCCCCCCNC(=O)N1CC1C (stereo unspecified) ?
0.0

What do you get for CCC(C)[C@@H](NC1=C(Cl)C(=O)c2c(O)ccc(O)c2C1=O)C(=O)OC (stereo partly specified) ?
0.0

What do you get for COc1ccc2c(c1)C=C([N+](=O)[O-])C(C1OC(C)(C)OC1C1COC(C)(C)O1)O2 (stereo unspecified) ?
0.0

What do you get for CCOC(=O)[C@@]12C[C@](/C=C/OC)(O[Si](C)(C)C)[C@@]13c1cc(OC)c(OC)cc1CCN3C(=O)C2=O ?
0.0

What do you get for Cn1cnc2c1c(=O)n(CCNCCO)c(=O)n2C ?
0.0

What do you get for CCCCCCCCCCCCCCCCCCOCC(COP(=O)([O-])OCC[N+](C)(C)C)OC (stereo unspecified) ?
0.0

What do you get for CC(=O)NC1C(OCc2ccccc2)OC(CO)C(O)C1OC(C)C(=O)N[C@@H](C)C(=O)N[C@H](CCC(=O)OCCNc1c2ccccc2nc2cccc([N+](=O)[O-])c12)C(N)=O (stereo partly specified) ?
1.0
